Tested on: galium
Assay: Test A postemergence
Format: in vivo, Galium aparine
Details: 125 g ai/ha, postemergence, 10 days; 0 to 100 scale, 0 no effect, 100 complete control
Answer No if Galium plant response rating is under 80, and Yes if it is 80 or more.

*Q* Is the recorded value of Galium plant response rating equal to or greater than 80 for this molecule? C=CCOc1ccc(-n2cnc(C(C)C)n2)cc1C(=O)N1C[C@H](C)Oc2c(Cl)cccc21
*A* Yes

*Q* Could you tell me if the measured Galium plant response rating of CCc1ncn(-c2ccc(CC)c(C(=O)N3C[C@H](C)Oc4c(Cl)cccc43)c2)n1 reaches 80 or more?
*A* Yes

*Q* Entry CCc1ccc(-n2cnc(C(C)(C)C)n2)cc1C(=O)N1C[C@H](C)Oc2c(Cl)cccc21 : is its Galium plant response rating no less than 80?
*A* No

*Q* Quick check, Galium plant response rating >= 80? CC(C)c1ncn(-c2ccc(C#N)c(C(=O)N3C[C@H](C)Oc4c(Cl)cccc43)c2)n1
*A* No

*Q* Galium plant response rating >= 80 for CC(C)Cc1ncn(-c2cccc(C(=O)N3C[C@H](C)Oc4c(Cl)cccc43)c2)n1 ?
*A* Yes

*Q* Say whether Cc1cccc2c1OC(C(F)(F)F)CN2C(=O)c1ccnc(-n2cncn2)c1 (centres unmarked) shows Galium plant response rating of 80 or more.
*A* No

*Q* Quick check, Galium plant response rating >= 80? CCc1ccc(-n2cnc(C3CCC3)n2)cc1C(=O)N1C[C@H](C)Oc2c(Cl)cccc21
*A* No

*Q* Please tell me: is the molecule Cc1cccc2c1O[C@@H](C)CN2C(=O)c1cccc(-n2cnn(C(C)C)c2=O)c1 at or over 80 in terms of Galium plant response rating?
*A* No

*Q* Is Galium plant response rating at least 80? Consider CC(C)c1ncn(-c2cc(C(=O)N3C[C@H](C)Oc4c(Cl)cccc43)c3ccccc3c2)n1
*A* No

====

System: sedge, umbrella
Experiment: Test B flooded paddy test
Assay type: in vivo, Cyperus difformis
Conditions: 250 g ai/ha, Flood, 13 days, 0 to 100 scale (0 no effect, 100 complete control)
Protocol: Plant species in the flooded paddy test selected from barnyardgrass (Echinochloa crus-galli), ducksalad (Heteranthera limosa), rice (Oryza sativa), and sedge, umbrella (small-flower umbrella sedge, Cyperus difformis) were grown to the 2-leaf stage for testing. […] Treated plants and controls were maintained in a greenhouse for 13 days, after which time all species were compared to controls and visually evaluated. […]
recorded_endpoint: Plant response rating, Sedge, Umbrella

// recorded Plant response rating, Sedge, Umbrella for C#CCOc1ccc(-n2cnc(C(C)C)n2)cc1C(=O)N1C[C@H](C)Oc2c(Cl)cccc21 : 90

Lab note: CC(C)Oc1ccc(-n2cnc(C(C)C)n2)cc1C(=O)N1C[C@H](C)Oc2c(Cl)cccc21 gave Plant response rating, Sedge, Umbrella of 80

GET /value?item= CCc1ncn(-c2ccc(C)c(C(=O)N3C[C@H](C)Oc4c(Cl)cccc43)c2)n1 &field=Plant response rating, Sedge, Umbrella returns 98

Query O=C(c1ccnc(-n2cncn2)c1)N1CC(C(F)(F)F)Oc2c(Cl)cccc21 (stereo not drawn) yields Plant response rating, Sedge, Umbrella of 0

Item: Cc1cccc2c1O[C@@H](C)CN2C(=O)c1cccc(-n2cnc(C3CCCCC3)n2)c1 | Plant response rating, Sedge, Umbrella: 0

The recorded Plant response rating, Sedge, Umbrella for entry CCc1ccc(-n2cnc(C3CC3)n2)cc1C(=O)N1C[C@H](C)Oc2c(Cl)cccc21 equals 100
